Assay: Stability of analytes in rat plasma (auto-sampler, freeze-thaw, room temperature, long-term)
Settings: 500 ng/mL, three freeze-thaw cycles
Measured Freeze thaw cycles Accuracy (%) by item
Report the value in % with no unit label.

Some solved cases for reference:
C[C@@]12C[C@@]3(O)O[C@@H](O1)[C@]1(COC(=O)c4ccccc4)[C@H]3C[C@@]12O[C@@H]1O[C@H](CO)[C@@H](O)[C@H](O)[C@H]1O; 93.1
C[C@]1(OC(=O)/C=C/c2ccccc2)C[C@@H](O)[C@]2(O)C=CO[C@@H](O[C@@H]3O[C@H](CO)[C@@H](O)[C@H](O)[C@H]3O)[C@@H]21 [harpagoside]; 95.1
C[C@@H]1O[C@@H](Oc2c(-c3ccc(O)c(O)c3)oc3cc(O)cc(O)c3c2=O)[C@H](O)[C@H](O)[C@H]1O; 89.3

Okay, next one:
Record request: Freeze thaw cycles Accuracy (%) value, item O=C1C[C@@H](c2ccc(O[C@@H]3O[C@H](CO)[C@@H](O)[C@H](O)[C@H]3O)cc2)Oc2cc(O)ccc21
87.0

###

# Autosampler for 24 h Accuracy (%) listing for each entry below
Experiment: Stability of analytes in rat plasma (auto-sampler, freeze-thaw, room temperature, long-term)
Settings: 500 ng/mL, autosampler 24 h
Form entry: value (%) — number only.

Example molecules with recorded Autosampler for 24 h Accuracy (%):
COC(=O)C1=CO[C@@H](O[C@@H]2O[C@H](CO)[C@@H](O)[C@H](O)[C@H]2O)[C@H]2[C@@H]1C(=O)C[C@@H]2C; 88.3
COc1ccc([C@@H]2CC(=O)c3c(O)cc(O[C@@H]4O[C@H](CO[C@@H]5O[C@@H](C)[C@H](O)[C@@H](O)[C@H]5O)[C@@H](O)[C@H](O)[C@H]4O)cc3O2)cc1O; 87.8

# next molecule below
Dear colleague, I am looking for the recorded Autosampler for 24 h Accuracy (%) of the following molecule: O=c1cc(-c2ccc(O)cc2)oc2c([C@@H]3O[C@H](CO)[C@@H](O)[C@H](O)[C@H]3O)c(O)cc(O)c12
92.4
